Overview of reported MIC across a group of compounds:
Test system: Staphylococcus aureus
Assay: Antibacterial activity against Staphylococcus aureus ATCC 6538 assessed as inhibition of bacterial growth measured after 24 hrs by turbidity based analysis
Type: functional
Where a SMILES comes first, the peptide text is derived from it. [ ]: non-standard residue; d: D form. Orn = NCCC[C@H](N)C(=O)O
Write the answer as a number in µM, unit excluded.

CC(C)C[C@@H]1NC(=O)[C@H](CCCN)NC(=O)[C@H](C(C)C)NC(=O)[C@H](Cc2ccc(O)cc2)NC(=O)[C@H](CCC(N)=O)NC(=O)[C@H](CC(N)=O)NC(=O)[C@@H](Cc2ccccc2)NC(=O)[C@H](Cc2ccccc2)NC(=O)[C@@H]2CCCN2C(=O)[C@@H](Cc2ccccc2)NC1=O [TYROCIDINE A] (cyclo(F[dF]NQYV[Orn]L[dF]P)) : 2.5

Consider the additional compound presented here.
Q) Give its MIC value. Item: CC(C)C[C@@H]1NC(=O)[C@H](CCCN)NC(=O)[C@H](CCCN)NC(=O)[C@H](CCCN)NC(=O)[C@H](CCCN)NC(=O)[C@H](CCCN)NC(=O)[C@@H](Cc2ccccc2)NC(=O)[C@H](Cc2ccccc2)NC(=O)[C@@H]2CCCN2C(=O)[C@@H](Cc2ccccc2)NC1=O
A) 5

----------
Assay: Hemolytic activity in human RBC assessed as induction of cell lysis measured after 30 mins by microtiter plate method
Format: cell-based, Erythrocyte
Conditions: human red blood cells (erythrocytes)
We label by threshold. Values of HC50 at 0.5 h strictly beneath 20 µM are Satisfied. Values of 20 µM and up are Not satisfied.

Worked examples follow.
CC(C)C[C@@H]1NC(=O)[C@H](CCCN)NC(=O)[C@H](CCCN)NC(=O)[C@H](CCCN)NC(=O)[C@H](CCCN)NC(=O)[C@H](CCCN)NC(=O)[C@@H](Cc2ccccc2)NC(=O)[C@H](Cc2ccccc2)NC(=O)[C@@H]2CCCN2C(=O)[C@@H](Cc2ccccc2)NC1=O : Not satisfied
CC(C)C[C@@H]1NC(=O)[C@H](CCCN)NC(=O)[C@H](C(C)C)NC(=O)[C@H](CCCN)NC(=O)[C@H](CCCN)NC(=O)[C@H](CC(N)=O)NC(=O)[C@@H](Cc2ccccc2)NC(=O)[C@H](Cc2ccccc2)NC(=O)[C@@H]2CCCN2C(=O)[C@@H](Cc2ccccc2)NC1=O : Not satisfied

Note: attention shifts to another entry.
Q) Please state whether HC50 at 0.5 h is below 20 µM for CC(C)C[C@@H]1NC(=O)[C@H](CCCN)NC(=O)[C@H](C(C)C)NC(=O)[C@H](Cc2ccc(O)cc2)NC(=O)[C@H](CCCN)NC(=O)[C@H](CCCN)NC(=O)[C@@H](Cc2ccccc2)NC(=O)C(Cc2ccccc2)NC(=O)[C@@H]2CCCN2C(=O)[C@@H](Cc2ccccc2)NC1=O (single isomer, unassigned)
A) Not satisfied

----------
Tested on: Cell membrane
Assay: Induction of cytoplasmic membrane depolarization in Staphylococcus aureus assessed as increase in fluorescence intensity a 1XMIC by DiSC3-5 dye based fluorescence method
The source made the active and inactive calls. No cut-off for these calls is given here. Where a SMILES comes first, the peptide text is derived from it. [ ]: non-standard residue; d: D form. Orn = NCCC[C@H](N)C(=O)O
measuredProperty: Activity

CC(C)C[C@@H]1NC(=O)[C@H](CCCN)NC(=O)[C@H](C(C)C)NC(=O)[C@H](Cc2ccc(O)cc2)NC(=O)[C@H](CCC(N)=O)NC(=O)[C@H](CC(N)=O)NC(=O)[C@@H](Cc2ccccc2)NC(=O)[C@H](Cc2ccccc2)NC(=O)[C@@H]2CCCN2C(=O)[C@@H](Cc2ccccc2)NC1=O [TYROCIDINE A] (cyclo(F[dF]NQYV[Orn]L[dF]P)) : Active
CC(C)C[C@@H]1NC(=O)[C@H](CCCN)NC(=O)[C@H](C(C)C)NC(=O)[C@H](CCCN)NC(=O)[C@H](CCC(N)=O)NC(=O)[C@H](CCCN)NC(=O)[C@@H](Cc2ccccc2)NC(=O)[C@H](Cc2ccccc2)NC(=O)[C@@H]2CCCN2C(=O)[C@@H](Cc2ccccc2)NC1=O : Active

----------
System: Cell membrane
Test: Induction of cytoplasmic membrane depolarization in Staphylococcus aureus assessed as increase in fluorescence intensity a 1XMIC by DiSC3-5 dye based fluorescence method
Calls of active or inactive are those of the source. The rule behind the calls is not given here.
Response enum: label 1 = active, label 0 = inactive

NCCC[C@@H]1NC(=O)[C@H](CCCN)NC(=O)[C@H](CCCN)NC(=O)[C@H](CCCN)NC(=O)[C@@H](Cc2ccccc2)NC(=O)[C@H](Cc2ccccc2)NC(=O)[C@@H]2CCCN2C(=O)[C@@H](Cc2ccccc2)NC(=O)[C@H](CCCN)NC(=O)[C@H](CCCN)NC1=O : label 0
CC(C)C[C@@H]1NC(=O)[C@H](CCCN)NC(=O)[C@H](CCCN)NC(=O)[C@H](CCCN)NC(=O)[C@H](CCCN)NC(=O)[C@H](CCCN)NC(=O)[C@@H](Cc2ccccc2)NC(=O)[C@H](Cc2ccccc2)NC(=O)[C@@H]2CCCN2C(=O)[C@@H](Cc2ccccc2)NC1=O : label 1

--- query ---
Q) Entry CC(C)C[C@@H]1NC(=O)[C@H](CCCN)NC(=O)[C@H](C(C)C)NC(=O)[C@H](CCCN)NC(=O)[C@H](CCCN)NC(=O)[C@H](CCCN)NC(=O)[C@@H](Cc2ccccc2)NC(=O)[C@H](Cc2ccccc2)NC(=O)[C@@H]2CCCN2C(=O)[C@@H](Cc2ccccc2)NC1=O : call = ?
A) label 1

----------
Test system: Cell membrane
Test: Induction of outer membrane permeabilization to NPN in Escherichia coli ATCC 8739 cells assessed as increase in fluorescence intensity by NPN-probe based fluorescence spectrophotometric analysis
Type: subcellular
The source made the active and inactive calls. The rule behind the calls is not given here. Where a SMILES comes first, the peptide text is derived from it. [ ]: non-standard residue; d: D form. Orn = NCCC[C@H](N)C(=O)O
measuredProperty: Activity

Some compounds with recorded Activity:
CC(C)C[C@@H]1NC(=O)[C@H](CCCN)NC(=O)[C@H](C(C)C)NC(=O)[C@H](CCCN)NC(=O)[C@H](CCC(N)=O)NC(=O)[C@H](CCCN)NC(=O)[C@@H](Cc2ccccc2)NC(=O)[C@H](Cc2ccccc2)NC(=O)[C@@H]2CCCN2C(=O)[C@@H](Cc2ccccc2)NC1=O : Active
CC(C)C[C@@H]1NC(=O)[C@H](CCCN)NC(=O)[C@H](C(C)C)NC(=O)[C@H](CCCN)NC(=O)[C@H](CCCN)NC(=O)[C@H](CCCN)NC(=O)[C@@H](Cc2ccccc2)NC(=O)[C@H](Cc2ccccc2)NC(=O)[C@@H]2CCCN2C(=O)[C@@H](Cc2ccccc2)NC1=O : Active
CC(C)C[C@@H]1NC(=O)[C@H](CCCN)NC(=O)[C@H](C(C)C)NC(=O)[C@H](Cc2ccc(O)cc2)NC(=O)[C@H](CCC(N)=O)NC(=O)[C@H](CC(N)=O)NC(=O)[C@@H](Cc2ccccc2)NC(=O)[C@H](Cc2ccccc2)NC(=O)[C@@H]2CCCN2C(=O)[C@@H](Cc2ccccc2)NC1=O [TYROCIDINE A] (cyclo(F[dF]NQYV[Orn]L[dF]P)) : Active
CC(C)C[C@@H]1NC(=O)[C@H](CCCN)NC(=O)[C@H](C(C)C)NC(=O)[C@H](Cc2ccc(O)cc2)NC(=O)[C@H](CCC(N)=O)NC(=O)[C@H](CCCN)NC(=O)[C@@H](Cc2ccccc2)NC(=O)[C@H](Cc2ccccc2)NC(=O)[C@@H]2CCCN2C(=O)[C@@H](Cc2ccccc2)NC1=O : Active
CC(C)C[C@@H]1NC(=O)[C@H](CCCN)NC(=O)[C@H](CCCN)NC(=O)[C@H](CCCN)NC(=O)[C@H](CCCN)NC(=O)[C@H](CCCN)NC(=O)[C@@H](Cc2ccccc2)NC(=O)[C@H](Cc2ccccc2)NC(=O)[C@@H]2CCCN2C(=O)[C@@H](Cc2ccccc2)NC1=O : Active

Consider the record given below.
Q) Recorded Activity for NCCC[C@@H]1NC(=O)[C@H](CCCN)NC(=O)[C@H](CCCN)NC(=O)[C@H](CCCN)NC(=O)[C@@H](Cc2ccccc2)NC(=O)[C@H](Cc2ccccc2)NC(=O)[C@@H]2CCCN2C(=O)[C@@H](Cc2ccccc2)NC(=O)[C@H](CCCN)NC(=O)[C@H](CCCN)NC1=O , please?
A) Active

----------
System: Staphylococcus aureus
Assay: Antibacterial activity against methicillin resistant Staphylococcus aureus assessed as inhibition of bacterial growth measured after 24 hrs by turbidity based analysis
Format: functional
Where a SMILES comes first, the peptide text is derived from it. [ ]: non-standard residue; d: D form. Orn = NCCC[C@H](N)C(=O)O
measuredProperty: MIC (µM)
Give just the number in µM; leave the unit off.

CC(C)C[C@@H]1NC(=O)[C@H](CCCN)NC(=O)[C@H](C(C)C)NC(=O)[C@H](Cc2ccc(O)cc2)NC(=O)[C@H](CCCN)NC(=O)[C@H](CC(N)=O)NC(=O)[C@@H](Cc2ccccc2)NC(=O)[C@H](Cc2ccccc2)NC(=O)[C@@H]2CCCN2C(=O)[C@@H](Cc2ccccc2)NC1=O (cyclo(F[dF]N[Orn]YV[Orn]L[dF]P)) : 5
CC(C)C[C@@H]1NC(=O)[C@H](CCCN)NC(=O)[C@H](C(C)C)NC(=O)[C@H](Cc2ccc(O)cc2)NC(=O)[C@H](CCC(N)=O)NC(=O)[C@H](CC(N)=O)NC(=O)[C@@H](Cc2ccccc2)NC(=O)[C@H](Cc2ccccc2)NC(=O)[C@@H]2CCCN2C(=O)[C@@H](Cc2ccccc2)NC1=O [TYROCIDINE A] (cyclo(F[dF]NQYV[Orn]L[dF]P)) : 20
NCCC[C@@H]1NC(=O)[C@H](CCCN)NC(=O)[C@H](CCCN)NC(=O)[C@H](CCCN)NC(=O)[C@@H](Cc2ccccc2)NC(=O)[C@H](Cc2ccccc2)NC(=O)[C@@H]2CCCN2C(=O)[C@@H](Cc2ccccc2)NC(=O)[C@H](CCCN)NC(=O)[C@H](CCCN)NC1=O : 40
CC(C)C[C@@H]1NC(=O)[C@H](CCCN)NC(=O)[C@H](C(C)C)NC(=O)[C@H](CCCN)NC(=O)[C@H](CCC(N)=O)NC(=O)[C@H](CC(N)=O)NC(=O)[C@@H](Cc2ccccc2)NC(=O)[C@H](Cc2ccccc2)NC(=O)[C@@H]2CCCN2C(=O)[C@@H](Cc2ccccc2)NC1=O : 10
CC(C)[C@@H]1NC(=O)[C@H](CCCN)NC(=O)[C@H](CCCN)NC(=O)[C@H](CCCN)NC(=O)[C@@H](Cc2ccccc2)NC(=O)[C@H](Cc2ccccc2)NC(=O)[C@@H]2CCCN2C(=O)[C@@H](Cc2ccccc2)NC(=O)[C@H](CCCN)NC(=O)[C@H](CCCN)NC1=O : 10

Q) Looking for the measured MIC of CC(C)C[C@@H]1NC(=O)[C@H](CCCN)NC(=O)[C@H](C(C)C)NC(=O)[C@H](CCCN)NC(=O)[C@H](CCC(N)=O)NC(=O)[C@H](CCCN)NC(=O)[C@@H](Cc2ccccc2)NC(=O)[C@H](Cc2ccccc2)NC(=O)[C@@H]2CCCN2C(=O)[C@@H](Cc2ccccc2)NC1=O , can you help?
A) 10

Q) Which MIC value is on record for CC(C)C[C@@H]1NC(=O)[C@H](CCCN)NC(=O)[C@H](C(C)C)NC(=O)[C@H](CCCN)NC(=O)[C@H](CCCN)NC(=O)[C@H](CCCN)NC(=O)[C@@H](Cc2ccccc2)NC(=O)[C@H](Cc2ccccc2)NC(=O)[C@@H]2CCCN2C(=O)[C@@H](Cc2ccccc2)NC1=O ?
A) 10
